B1: Alpha-lactalbumin, P00712 (parent)
chain: MMSFVSLLLVGILFHATQAEQLTKCEVFQKLKDLKDYGGVSLPEWVCTAFHTSGYDTQAIVQNNDSTEYGLFQINNKIWCKDDQNPHSRNICNISCDKFLDDDLTDDIVCAKKILDKVGINYWLAHKALCSEKLDQWLCEKL

variants of: B1; details: Capra hircus; pH 7; 25 °C; GdnHCl; CD; sodium cacodylate 50 mM; NaCl 50 mM; reversible: yes; structure 1HFY; whole UniProt chain shown
measured.parameter: denaturant midpoint (higher = more stable) (M)
Answers are plain numbers, in M.

variant.key	observed
A49I	3.01
T48I	3.93
A49I T52I	2.85
A49T	2.44

Problem: Data request, read-out denaturant midpoint (higher = more stable), for "T52I"
Solution: 2.31
